- Tested on: Phosphodiesterase 3 (Felis catus)
- ASSAY_METHOD_TEXT: Inhibition of phosphodiesterase 3 enzyme activity by 50%
Kindly supply the reported log10 of IC50 values for the records listed here.
Values below are the log10 of the recorded IC50, with µM as the unit.

Asked: Query (compound): O=C1CCC(c2ccc(C3=NNC(=O)CC3)cc2)=NN1 ; field requested: log10 of IC50
Given back: -0.19

Asked: Query (compound): CC1CC(=O)NN=C1c1ccc(-c2ccc(O)nn2)cc1 (centres undefined) ; field requested: log10 of IC50
Given back: -1.15

Asked: Query (compound): Nc1ccc(-c2ccc(O)nn2)cc1 ; field requested: log10 of IC50
Given back: 1.36

Asked: Query (compound): CC1CC(=O)NN=C1c1ccc(C(N)=O)cc1 (centres undefined) ; field requested: log10 of IC50
Given back: 0.35

Asked: Query (compound): Oc1ccc(-c2ccc(-c3ccc(O)nn3)s2)nn1 ; field requested: log10 of IC50
Given back: -0.31

Asked: Query (compound): Cc1cc(O)nnc1-c1ccc(-c2nnc(O)cc2C)cc1 ; field requested: log10 of IC50
Given back: 1.57

Asked: Query (compound): CC1CC(=O)NN=C1c1ccc(C2=NNC(=O)CC2C)cc1 (centres undefined) ; field requested: log10 of IC50
Given back: -0.96

Asked: Query (compound): Nc1ccc(C2=NNC(=O)CC2)cc1 ; field requested: log10 of IC50
Given back: 1.79

Asked: Query (compound): CC(=O)Nc1ccc(-c2ccc(O)nn2)cc1 ; field requested: log10 of IC50
Given back: 0.80

Asked: Query (compound): Oc1ccc(-c2ccc(-c3ccc(O)nn3)cc2)nn1 ; field requested: log10 of IC50
Given back: -0.48

Asked: Query (compound): Oc1ccc(-c2cccc(-c3ccc(O)nn3)c2)nn1 ; field requested: log10 of IC50
Given back: 0.59

Asked: Query (compound): CC(=O)Nc1ccc(C2=NNC(=O)CC2)cc1 ; field requested: log10 of IC50
Given back: 0.85

Asked: Query (compound): CC1CC(=O)NN=C1c1ccc(N)cc1 (centres undefined) ; field requested: log10 of IC50
Given back: 1.57

* * *

- System: Felis catus
- ASSAY_METHOD_TEXT: ED15 is the dose producing 15% decrease in autoperfused hindquarters perfusion pressure in anesthetized cat
- Format: functional
ASSAY_READOUT: ED15 (µM/kg)
The answer is to be given in µM/kg; state only the numeric part.

Asked: Query (compound): O=C1CCC(c2ccc(-n3ccnc3)cc2)=NN1 [IMAZODAN] ; field requested: ED15
Given back: 0.42

Asked: Query (compound): CC1CC(=O)NN=C1c1ccc(-c2ccc(O)nn2)cc1 (centres undefined) ; field requested: ED15
Given back: 0.01

Asked: Query (compound): O=C1CCC(c2ccc(C3=NNC(=O)CC3)cc2)=NN1 ; field requested: ED15
Given back: 0.12

Asked: Query (compound): CC1CC(=O)NN=C1c1ccc(C2=NNC(=O)CC2C)cc1 (centres undefined) ; field requested: ED15
Given back: 0.04

Asked: Query (compound): CC1SC(=O)NN=C1c1ccc(C2=NNC(=O)SC2C)cc1 (centres undefined) ; field requested: ED15
Given back: 0.09

Asked: Query (compound): CC1CC(=O)NN=C1c1ccc(N)cc1 (centres undefined) ; field requested: ED15
Given back: 0.5

Asked: Query (compound): Oc1ccc(-c2ccc(-c3ccc(O)nn3)cc2)nn1 ; field requested: ED15
Given back: 0.06

Asked: Query (compound): CC(=O)Nc1ccc(C2=NNC(=O)CC2C)cc1 (centres undefined) ; field requested: ED15
Given back: 0.08

Asked: Query (compound): CC1CC(O)=NN=C1c1ccc(-n2ccnc2)cc1 (centres undefined) [CI-930] ; field requested: ED15
Given back: 0.09

Asked: Query (compound): CC1CC(=O)NN=C1c1ccc(C(N)=O)cc1 (centres undefined) ; field requested: ED15
Given back: 0.1

Asked: Query (compound): Oc1ccc(-c2cccc(-c3ccc(O)nn3)c2)nn1 ; field requested: ED15
Given back: 3.23

Asked: Query (compound): CC(=O)Nc1ccc(C2=NNC(=O)CC2)cc1 ; field requested: ED15
Given back: 0.2

Asked: Query (compound): Oc1ccc(-c2ccc(-c3ccc(O)nn3)s2)nn1 ; field requested: ED15
Given back: 0.38

Asked: Query (compound): Nc1ccc(C2=NNC(=O)CC2)cc1 ; field requested: ED15
Given back: 1.4
